Measured values drawn from PubChem BioAssay (NCI) for this set.

- Tested on: LOX IMVI melanoma
- Measurement notes: NCI-60 one-dose screen, 48 h (100 = growth as untreated, 0 = no growth, -100 = all killed)
- Details: 10 µM unless noted
The panel holds about 83,000 compounds, 20% with a hit somewhere; the sample as a whole holds those more often.
# reported growth; entries follow
Provide the reading as a plain figure in %.

Field: example entries. Status: answers known.
CCOC(=O)c1c(N)sc2cc(O)ccc12
96.5
COc1cccc2cc(N(C)c3ncnc4ccccc34)ccc12
15.5
O=C(CNc1ncco1)Nc1ccc(S(=O)(=O)c2ccc(NC(=O)CNc3ncco3)cc2)cc1
-81.8
COc1ccc(/C=N/NC(=O)Cn2nnc3ccccc32)cc1
106
N=C(N)c1ccc(-c2ccc(-c3ccccc3)s2)nc1
51.3

Can you share its growth? I mean this compound: C=C(C[n+]1ccccc1)[C@@H]1CC[C@]2(C(=O)OC)CC[C@]3(C)[C@H](CC[C@@H]4[C@@]5(C)CCC(=O)C(C)(C)[C@@H]5CC[C@]43C)[C@@H]12
93.7

Do the same for C=C(C)[C@@H]1CCC[C@]2(C(=O)OC)CC[C@]3(C)[C@@H](CC[C@@H]4[C@@]5(C)CCCNC(C)(C)[C@@H]5CC[C@]43C)[C@@H]12 please
97.8

Thanks! And CCCCC/C=C/CCC(=O)N[C@H]1[C@H](Oc2c3cc4cc2Oc2ccc(cc2Cl)[C@@H](O[C@@H]2O[C@H](CO)[C@@H](O)[C@H](O)[C@H]2NC(C)=O)[C@@H]2NC(=O)[C@H](NC(=O)[C@@H]4NC(=O)[C@H]4NC(=O)[C@@H](Cc5ccc(c(Cl)c5)O3)NC(=O)[C@@H](N)c3ccc(O)c(c3)Oc3cc(O)cc4c3)c3ccc(O)c(c3)-c3c(O[C@H]4O[C@H](CO)[C@@H](O)[C@H](O)[C@@H]4O)cc(O)cc3[C@H](C(=O)O)NC2=O)O[C@H](CO)[C@H](O)[C@@H]1O ?
91.5

Again, but for Cc1cc(C)n(C(=O)CSc2nc3sc4c(c3c(=O)n2-c2ccccc2)CCCCC4)n1
98.9

###

- Tested on: OVCAR-4 ovarian
- Measurement notes: NCI-60 one-dose screen, 48 h (100 = growth as untreated, 0 = no growth, -100 = all killed)
- Details: 10 µM unless noted
Compounds without any hit were thinned out: in the full panel of roughly 83,000, 20% have a hit.
Known growth of a selection of molecules
// note: answer is a bare numeric in %

These solved cases illustrate the format of a correct answer.
CC(C)(C)n1cc(-c2ccnc(NCCNS(=O)(=O)c3ccc(C(F)(F)F)cc3)c2)c(-c2ccccc2)n1
84.8
O=C(OCc1ccc2c(Br)cc(Br)c(O)c2n1)N1CCN(C(=O)c2cc3ccccc3[nH]2)CC1
26
O=C1OCC2=C1C(c1cccc(F)c1)c1cc3c(cc1N2CCO)CCC3 (configuration not stated)
48.8
O=c1oc2ccccc2cc1-c1nn(-c2ccccc2)cc1/C=N/Nc1nc(-c2ccccc2)c(N=Nc2ccccc2)s1
84.7
C=CCNc1nc(O)c(/C=C2\C=Nc3ncccc32)s1
34.7

Data request, read-out growth, for CCCC[N+]1(C)CCN=C1Cc1ccccc1 (configuration not stated)
109

Next molecule: CN1CCN(c2ccc(Nc3ncc4[nH]c(=O)n(Cc5ccccc5N)c4n3)cc2)CC1
93.6
